Test: E. coli acrAB mutant growth effects, primary screen, E. coli filamentation inducers, strain DRC39, OD650, 48 h (AID 1179);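 also: screen aims at cell division blockers that make cells filament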
Conditions: E. coli DRC39 delta-acrAB growth, higher = more signal, called active from +8 up or from −8 down
REPORTED_ENDPOINT: z-score
Lab note: record just the number, no unit beside it.

# COMPOUND, REPORTED_ENDPOINT, EXPERIMENTAL_VALUE
data = [
    ("CCCC/C=C/[C@H]([C@@H](O)Cc1ccccc1)N(CC#Cc1ccccc1)Cc1ccccc1Br", "z-score", 1.19),
    ("COc1cccc([C@H]2N[C@H](C(=O)O)CC[C@@H]2C)c1", "z-score", -0.83),
    ("COCCOC(=O)N1C(=O)[C@@]2(c3ccccc31)[C@H](C(=O)N1CCc3cc(OC)c(OC)cc3C1)[C@H]1C(=O)O[C@H](c3ccccc3)[C@H](c3ccccc3)N1[C@@H]2c1ccccc1OCCO", "z-score", 1.31),
]

Continue with the next compound.
Task: Given the compound CO[C@H]1COC(=O)CC=C[C@H](C)[C@@H](OC)COC(=O)CC=C[C@@H]1C , what is its reported z-score?
Result: 1.21

* * *

Measured z-score accompanies every entry in the list below.
Test: basal MM1S mitochondrial membrane potential changes, profiling panel, cell-based, JC-1 fluorescence, 24 h, 100 nL compound (AID 1170); also: test concentration not given here
Details: higher = more signal
Lab note: record just the number, no unit beside it.

# MOLECULE, REPORTED_ENDPOINT, EXPERIMENTAL_VALUE
data = [
    ("[N-]=[N+]=NCc1ccccc1[C@H]1OC(c2ccc(OCCCO)cc2)=N[C@@]1(Cc1ccccc1N=[N+]=[N-])C(=O)NCc1ccccc1", "z-score", -1.38),
    ("COCCOC(=O)N1C(=O)[C@@]2(c3ccccc31)[C@H](C(=O)N1CCc3cc(OC)c(OC)cc3C1)[C@H]1C(=O)O[C@H](c3ccccc3)[C@H](c3ccccc3)N1[C@@H]2c1ccccc1OCCO", "z-score", -0.238),
    ("CC(C)[Si]1(C(C)C)O[C@@H](c2ccccc2)c2cc(C3CC3)nc(-c3ccc(Oc4ccccc4)cc3)c21", "z-score", 0.484),
    ("C=CCC(OC(C)=O)[C@@H]1[C@@H](N(Cc2cccc3ccccc23)C(=O)c2ccc(C)cc2)c2cc(OCCCO)ccc2N1C(=O)c1ccc(-c2ccccc2)cc1 (stereo partly specified)", "z-score", -0.848),
    ("COC(=O)C1=CC(c2ccc(CO)cc2)=CC(C2CC2)N(Cc2sc3ccccc3c2Cl)C=C1C(=O)OC (stereo unspecified)", "z-score", -0.969),
]

Continue with the next molecule.
Task: Given the molecule C[N+](C)(C)CCCC[C@@H]1NC(=O)[C@H]2C[C@@H](C(=O)NCc3ccc(F)cc3)[C@@H](c3cccc(OCCO)c3)N2C1=O , what is its reported z-score?
Result: 0.392

* * *

Test: COS7 lysate on small-molecule microarray, probe aHis, 635 nm (AID 1123);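 also: z-score combines 667nm fluorescence intensity with signal-to-noise per printed compound spot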
Settings: COS7 cell lysate, fluorescence, higher = more signal
Measured composite z-score accompanies every entry in the list below.
Lab note: record just the number, no unit beside it.

Worked examples, 5 compounds total:
# COMPOUND, composite z-score
data = [
    ("CCC1=C2CN(Cc3ccccc3Br)[C@@H]([C@@H](O)Cc3ccccc3)C2C=CCC1 (some centres not stated)", 1.01),
    ("COc1ccc([Si](C)(C)[C@H]2[C@H](CCO)O[C@@]3(C(=O)N(Cc4ccc(N5CCCCC5=O)cc4)c4ccccc43)[C@@H]2C)cc1", 1.79),
    ("COc1cccc([C@@H]2[C@@H](C)CC[C@H]3C(=O)N(C)[C@@H](C(C)C)C(=O)N23)c1", 0.0706),
    ("CO[C@H]1COC(=O)[C@H](C)COC(=O)[C@H](Cc2ccccc2)NC(=O)CC=C[C@H]1C", -0.826),
    ("[N-]=[N+]=NCc1ccccc1C[C@]1(C(=O)N2CCCCC2)N=C(c2ccc(OCCCO)cc2)O[C@H]1c1ccccc1CN=[N+]=[N-]", 2.56),
]

Task: Given the compound COCCCNC(=O)[C@@]1(c2ccc([N+](=O)[O-])cc2)CC(=O)N(C2CCCCC2)[C@@H]1c1ccc(CO)cc1 , what is its reported composite z-score?
Result: 2.28

Task: Given the compound COCCOC(=O)N1C(=O)[C@@]2(c3cc(C#CCNC(N)=O)ccc31)[C@H](c1ccc(OCCO)cc1)N1[C@H](c3ccccc3)[C@H](c3ccccc3)OC(=O)[C@H]1[C@@H]2C(=O)N1CCCCCCC1 , what is its reported composite z-score?
Result: 0.043
